These data points were gathered from ChEMBL document CHEMBL3988442.

Target: Arginase-2, mitochondrial (Homo sapiens)
Experiment: in vitro enzyme assay to detect the production of urea directly proportional to the activity of Arginase II
Format: functional
Design: scale not given: in the data most compounds retested in dose-response had high values
Settings: 33.3 µM
Percent Effect values for the molecules below.
PROPERTY LABEL: Percent Effect (%)

{"MOLECULE": "CN1CCCC(c2cccc(Cc3ccccc3Cl)n2)C1 (stereo not given)", "QUANTITATIVE RESULT": -3.48}
{"MOLECULE": "O=C(NCCCn1cccn1)C1(c2ccc(F)cc2)CC1", "QUANTITATIVE RESULT": 10.4}
{"MOLECULE": "CCc1ncnc2c1CCN(C(=O)N1CCCC1)CC2", "QUANTITATIVE RESULT": -10.9}
{"MOLECULE": "O=C(C1CCOCC1)N1CCO[C@H]2[C@@H](OCc3ccncc3)CC[C@@H]21", "QUANTITATIVE RESULT": 1.67}
{"MOLECULE": "Cc1cnn(CC2CN(Cc3cccc(OCC(N)=O)c3)CCO2)c1 (stereo not given)", "QUANTITATIVE RESULT": 5.34}
{"MOLECULE": "NC(=O)CSCCC(=O)N1CCCC1c1ccsc1 (stereo not given)", "QUANTITATIVE RESULT": 19}
{"MOLECULE": "COc1ccc(CNC(=O)NC2CCN(CC(F)F)CC2)cc1C", "QUANTITATIVE RESULT": 3.72}
{"MOLECULE": "Cc1noc(C)c1CN(C)CC1CCCN1c1cccnn1 (stereo not given)", "QUANTITATIVE RESULT": 0.21}
{"MOLECULE": "CN(C)C(=O)N1CCOCC2(CCN(c3ncccn3)C2)C1 (stereo not given)", "QUANTITATIVE RESULT": -1.24}
{"MOLECULE": "O=C(NCCC(=O)N1CCCC1)c1nn(-c2ccccc2F)cc1O", "QUANTITATIVE RESULT": -0.554}
{"MOLECULE": "Cc1cc(-c2cnc(N3CCCC(C)C3)nc2-c2cccnc2C)on1 (stereo not given)", "QUANTITATIVE RESULT": -5.34}
{"MOLECULE": "O=c1n(CCSCc2ccccc2F)nc2ccccn12", "QUANTITATIVE RESULT": 4}
{"MOLECULE": "Cn1cnnc1C1CCN(c2cncc(-n3cccn3)n2)CC1", "QUANTITATIVE RESULT": 2.92}
{"MOLECULE": "CC1CCCN(Cc2c(C3CCOCC3)[nH]c3ncccc23)C1 (stereo not given)", "QUANTITATIVE RESULT": -6.26}
{"MOLECULE": "CN(C)C(=O)N1CCOCC2(CCN(c3ccccn3)C2)C1 (stereo not given)", "QUANTITATIVE RESULT": 2.23}
{"MOLECULE": "CCc1nnc2n1CCN(C(=O)c1cnc3ccccc3n1)C2", "QUANTITATIVE RESULT": 17.2}
{"MOLECULE": "O=C(NCc1ccccc1CN1CCC(O)CC1)Nc1ccncc1", "QUANTITATIVE RESULT": 0}
{"MOLECULE": "Cc1ccc(-c2nc(CNC3CCc4ncnn4C3)co2)c(C)c1 (stereo not given)", "QUANTITATIVE RESULT": 0}
{"MOLECULE": "Cc1nc(C)n(CC2CCCN(Cc3nc(C)c(C)o3)C2)n1 (stereo not given)", "QUANTITATIVE RESULT": -12.8}
{"MOLECULE": "CC(=O)N1CCC2(CC1)CC(Oc1ccccc1)CO2 (stereo not given)", "QUANTITATIVE RESULT": -1.2}
{"MOLECULE": "COc1cc(C(=O)NS(=O)(=O)c2cccc(C#N)c2)ccc1C", "QUANTITATIVE RESULT": -0.554}
{"MOLECULE": "COc1nn(C)c2c1CCCN(C(=O)c1ccccc1)C2", "QUANTITATIVE RESULT": -1.25}
{"MOLECULE": "CN(CC(N)=O)S(=O)(=O)c1ccc(F)cc1Cl", "QUANTITATIVE RESULT": 0.399}
{"MOLECULE": "c1cc(OCc2ccc3c(c2)OCO3)ccc1CNC1CC1", "QUANTITATIVE RESULT": -18.9}
{"MOLECULE": "Cn1cc(CN2CCC3(C2)CN(Cc2ccsc2)C3)cn1", "QUANTITATIVE RESULT": 1.38}

----------
Biological target: Chromo domain-containing protein 1 (Saccharomyces cerevisiae (strain ATCC 204508 / S288c) (Baker's yeast)) (UniProt P32657)
Sequence (P32657 whole entry, the tested form may be a part): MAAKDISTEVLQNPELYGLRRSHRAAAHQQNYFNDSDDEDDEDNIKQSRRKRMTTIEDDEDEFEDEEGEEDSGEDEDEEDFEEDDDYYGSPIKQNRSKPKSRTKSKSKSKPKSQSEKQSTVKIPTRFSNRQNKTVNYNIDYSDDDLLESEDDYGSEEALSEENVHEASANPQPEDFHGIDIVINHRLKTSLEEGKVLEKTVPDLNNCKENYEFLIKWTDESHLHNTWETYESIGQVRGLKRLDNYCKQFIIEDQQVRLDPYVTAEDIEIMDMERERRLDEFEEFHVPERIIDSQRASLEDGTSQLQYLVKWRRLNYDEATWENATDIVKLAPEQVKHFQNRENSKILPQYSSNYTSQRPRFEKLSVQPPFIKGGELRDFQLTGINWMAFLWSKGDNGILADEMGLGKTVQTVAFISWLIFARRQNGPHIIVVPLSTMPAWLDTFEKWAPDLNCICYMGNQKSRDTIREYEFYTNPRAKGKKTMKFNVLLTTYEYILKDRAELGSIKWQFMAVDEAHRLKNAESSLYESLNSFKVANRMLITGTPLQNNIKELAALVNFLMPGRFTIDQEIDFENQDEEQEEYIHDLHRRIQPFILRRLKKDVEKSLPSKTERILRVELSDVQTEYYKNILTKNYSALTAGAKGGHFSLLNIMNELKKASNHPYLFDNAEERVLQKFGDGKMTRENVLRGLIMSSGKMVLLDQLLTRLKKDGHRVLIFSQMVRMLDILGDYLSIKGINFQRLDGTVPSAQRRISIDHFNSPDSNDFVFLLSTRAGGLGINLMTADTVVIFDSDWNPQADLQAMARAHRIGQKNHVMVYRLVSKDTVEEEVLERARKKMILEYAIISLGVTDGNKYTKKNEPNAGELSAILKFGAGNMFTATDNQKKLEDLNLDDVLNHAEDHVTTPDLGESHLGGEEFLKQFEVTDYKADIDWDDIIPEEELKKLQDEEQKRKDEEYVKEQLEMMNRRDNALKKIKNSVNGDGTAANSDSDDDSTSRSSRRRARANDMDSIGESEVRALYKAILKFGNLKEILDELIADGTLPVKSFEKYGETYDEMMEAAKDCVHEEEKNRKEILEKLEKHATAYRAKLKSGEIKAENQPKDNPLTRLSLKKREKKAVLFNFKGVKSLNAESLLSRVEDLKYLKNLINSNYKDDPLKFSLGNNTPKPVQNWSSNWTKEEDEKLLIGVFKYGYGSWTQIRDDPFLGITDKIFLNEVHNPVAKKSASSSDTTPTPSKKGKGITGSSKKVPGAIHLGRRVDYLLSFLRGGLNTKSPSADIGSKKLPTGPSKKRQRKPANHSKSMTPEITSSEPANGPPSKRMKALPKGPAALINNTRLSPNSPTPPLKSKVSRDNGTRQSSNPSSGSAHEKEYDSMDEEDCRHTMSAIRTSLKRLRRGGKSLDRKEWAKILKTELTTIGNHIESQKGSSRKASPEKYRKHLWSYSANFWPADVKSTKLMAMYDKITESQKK
Test: ScCHD-1 Enzyme Inhibition Assay
Format: functional
Parameters: scale not given: in the data most compounds retested in dose-response had high values
Settings: 30 µM
Quick reference: Percent Effect of the listed items.
PROPERTY LABEL: Percent Effect (%)

{"MOLECULE": "CS(=O)(=O)N1CCC(Oc2ccc(C(=O)N3CCSCC3)cc2Cl)CC1", "PROPERTY LABEL": "Percent Effect", "UNIT DESCRIPTOR": "%", "QUANTITATIVE RESULT": -2.42}
{"MOLECULE": "CC(C(=O)N1CCC(Nc2cccnn2)CC1)n1ccnc1 (stereo unspecified)", "PROPERTY LABEL": "Percent Effect", "UNIT DESCRIPTOR": "%", "QUANTITATIVE RESULT": -6.18}
{"MOLECULE": "Cc1ccc(C(=O)N2CCCC(NC(=O)C(C)C)C2)c(O)c1 (stereo unspecified)", "PROPERTY LABEL": "Percent Effect", "UNIT DESCRIPTOR": "%", "QUANTITATIVE RESULT": -10.5}
{"MOLECULE": "CC(=O)N1CCOC(c2cc(N3CC(O)C3)nc(C)n2)C1 (stereo unspecified)", "PROPERTY LABEL": "Percent Effect", "UNIT DESCRIPTOR": "%", "QUANTITATIVE RESULT": -2.41}
{"MOLECULE": "N#Cc1ccnc(N2CCN(Cc3cccc(F)c3)CC2)c1", "PROPERTY LABEL": "Percent Effect", "UNIT DESCRIPTOR": "%", "QUANTITATIVE RESULT": -8.71}
{"MOLECULE": "O=C(c1ccc(F)cc1)N1C[C@@H]2OCCN(c3ncccn3)[C@@H]2C1", "PROPERTY LABEL": "Percent Effect", "UNIT DESCRIPTOR": "%", "QUANTITATIVE RESULT": -9.01}
{"MOLECULE": "O=C(CN1CCOC(Cn2cccn2)C1)NCc1cccs1 (stereo unspecified)", "PROPERTY LABEL": "Percent Effect", "UNIT DESCRIPTOR": "%", "QUANTITATIVE RESULT": -4.1}
{"MOLECULE": "CN(C)C(=O)C1(CCCc2ccncc2)CCCN1 (stereo unspecified)", "PROPERTY LABEL": "Percent Effect", "UNIT DESCRIPTOR": "%", "QUANTITATIVE RESULT": -22.2}
{"MOLECULE": "CCC1=N[C@@]2(CC[C@@H]3CN(CC4CC4)C[C@@H]32)C(=O)N1C", "PROPERTY LABEL": "Percent Effect", "UNIT DESCRIPTOR": "%", "QUANTITATIVE RESULT": -3.77}
{"MOLECULE": "CN1CCCc2cc(CNC(=O)c3ccc(NC4CC4)nc3)ccc21", "PROPERTY LABEL": "Percent Effect", "UNIT DESCRIPTOR": "%", "QUANTITATIVE RESULT": -6.23}
{"MOLECULE": "COC(=O)CNC(=O)CSCc1nc(O)c2c(C)c(C)sc2n1", "PROPERTY LABEL": "Percent Effect", "UNIT DESCRIPTOR": "%", "QUANTITATIVE RESULT": -4.91}
